Molecular target: T1, soluble human FcRn (shFcRn) (human, UniProt P55899 24-297; P61769 21-119)
T1 construct: Biotinylated for the ELISA, amine-coupled to a CM5 chip for SPR; also called biotinylated shFcRn
T1 sequence (P55899 24-297 limits assumed, chain 1 of 2): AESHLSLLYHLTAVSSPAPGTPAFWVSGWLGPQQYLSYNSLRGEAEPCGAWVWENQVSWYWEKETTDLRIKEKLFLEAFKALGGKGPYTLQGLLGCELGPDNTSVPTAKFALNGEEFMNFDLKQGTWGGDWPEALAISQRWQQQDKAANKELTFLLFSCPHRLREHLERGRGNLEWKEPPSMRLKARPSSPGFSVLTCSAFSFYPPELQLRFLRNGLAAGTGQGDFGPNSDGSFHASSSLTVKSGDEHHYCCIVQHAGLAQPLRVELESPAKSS
T1 sequence (P61769 21-119 limits assumed, chain 2 of 2): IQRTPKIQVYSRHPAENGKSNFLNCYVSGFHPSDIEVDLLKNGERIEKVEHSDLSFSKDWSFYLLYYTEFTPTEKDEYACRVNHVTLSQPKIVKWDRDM
Experiment: SPR pH 6
Bridge positions count the residues as written; N and C are the ends. Square brackets hold non-standard residues; d marks the D form. Ends that are not written are not given here. Pen = CC(C)(S)[C@H](N)C(=O)O; hCys = N[C@@H](CCS)C(=O)O
measured property: Kd (µM)
Please reply with the bare figure in µM and do not write the unit itself.

[in] For QRF[hCys]TGHFGGLYP[Pen]NGP-NH2 (disulfide 4-14; N-terminus assumed; SMILES CC(C)C[C@@H]1NC(=O)CNC(=O)CNC(=O)[C@H](Cc2ccccc2)NC(=O)[C@H](Cc2c[nH]cn2)NC(=O)CNC(=O)[C@H]([C@@H](C)O)NC(=O)[C@@H](NC(=O)[C@H](Cc2ccccc2)NC(=O)[C@H](CCCNC(=N)N)NC(=O)[C@@H](N)CCC(N)=O)CCSSC(C)(C)[C@@H](C(=O)N[C@@H](CC(N)=O)C(=O)NCC(=O)N2CCC[C@H]2C(N)=O)NC(=O)[C@@H]2CCCN2C(=O)[C@H](Cc2ccc(O)cc2)NC1=O) [Peptide No. 70] , what is its reported Kd?
[out] 2.1
